Study the reported pIC50 values for 3',5'-cyclic-AMP phosphodiesterase 4B (Homo sapiens, UniProt Q07343) given below; they originate from different publications.
Would you please state pIC50, meaning minus log10 of the concentration in mol/L, as a bare number?

// worked examples, pIC50 included
compound: COc1ccc(-c2nc3c(c(Nc4ccc(CC(=O)O)cc4)n2)S(=O)(=O)CCC3)cc1Cl
pIC50: 7.89

compound: CC(C)Cc1nc2sc3c(NCCN4CCOCC4)ncnc3c2c2c1CCC(C)(C)C2
pIC50: 8.14

compound: O=C(O)Cc1ccc(Nc2nc(-c3ccc(Cl)cc3)nc3c2SCCC3)cc1
pIC50: 6.92

compound: CCC1(C)Cc2c(c(N3CCOCC3)nc3sc4c(NCCN5CCOCC5)ncnc4c23)CO1 (stereo unspecified)
pIC50: 7.05

compound: COC(=O)Cc1ccc(OCc2cc(-c3cccc(OC)c3)c3ncccc3c2)cc1
pIC50: 8.13

Record request: pIC50 value, item `C=CCc1c(C)nc(-c2ccc(OC)s2)nc1Nc1ccc(C(=O)O)cc1`
7.11
